assay notes: chemical genetic growth profiling, strain panel (AID 1159580);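 further: tested at 20 µM; growth read once vehicle control cultures reached saturation at 30 °C; 1 = growth at the plate median or of vehicle wells; lower values mean less growth of the strain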
particulars: S. cerevisiae deletion strains, growth OD, locus YNL271C, strain bni1
Out of some 5,500 compounds screened, about 2,000 (36%) were called active. Not shown: some 18% with an inconclusive outcome. No stated cut-off is given here; in the data, active means normalized growth mostly below about 0.91 (no sharp cut-off); inconclusive means no clear call, values can overlap the other calls; inactive means mostly above about 0.92. The list shows a part of the results.
Outcome codes: TRUE = active, FALSE = inactive

[
  {
    "molecule": "COCCOC(=O)C1=C(C)NC(C)=C(C(=O)OC(C)C)C1c1cccc([N+](=O)[O-])c1 (configuration not stated)",
    "label value": "FALSE"
  },
  {
    "molecule": "COc1ccc(-c2cc(=O)c3c(OC(C)=O)cc(OC(C)=O)cc3o2)cc1",
    "label value": "FALSE"
  },
  {
    "molecule": "Nc1nc(N)c2nc(-c3ccccc3)c(N)nc2n1",
    "label value": "FALSE"
  },
  {
    "molecule": "COc1cc([C@@H]2c3cc4c(cc3C(O[C@@H]3O[C@@H]5CO[C@@H](c6cccs6)OC5[C@H](O)[C@H]3O)C3COC(=O)[C@@H]32)OCO4)cc(OC)c1O (some centres not stated)",
    "label value": "FALSE"
  },
  {
    "molecule": "CC(C)Oc1ccc2c(=O)cc(-c3ccccc3)oc2c1",
    "label value": "TRUE"
  },
  {
    "molecule": "COc1ccc(-c2cc(=O)c3ccccc3o2)cc1",
    "label value": "TRUE"
  },
  {
    "molecule": "CC(=O)Oc1cc(-c2coc3cc(OC(C)=O)c(OC(C)=O)c(OC(C)=O)c3c2=O)cc(OC(C)=O)c1OC(C)=O",
    "label value": "FALSE"
  },
  {
    "molecule": "C[C@@H]1CC[C@@]2(OC1)OC1C(O)C3C4CC[C@H]5C[C@H](O[C@@H]6O[C@H](CO)[C@H](O[C@@H]7O[C@H](CO)[C@@H](O)[C@H](O[C@@H]8OC[C@@H](O)[C@H](O)[C@H]8O)[C@H]7O[C@@H]7O[C@H](CO)[C@H](O)[C@H](O[C@@H]8O[C@H](CO)[C@@H](O)[C@H](O)[C@H]8O)[C@H]7O)[C@H](O)[C@H]6O)[C@H](O)C[C@]5(C)C4CC[C@]3(C)C1[C@@H]2C (some centres not stated)",
    "label value": "TRUE"
  },
  {
    "molecule": "COc1ccc(-c2coc3cc(O)cc(O)c3c2=O)cc1",
    "label value": "TRUE"
  },
  {
    "molecule": "O=C(O)/C=C(\\CC(=O)O)C(=O)O",
    "label value": "FALSE"
  },
  {
    "molecule": "Cn1c(=O)c2[nH]c(C3CCCC3)nc2n(C)c1=O",
    "label value": "FALSE"
  },
  {
    "molecule": "CC1=NCCc2c1[nH]c1cc(O)ccc21",
    "label value": "FALSE"
  }
]

====

assay notes: chemical genetic growth profiling, strain panel (AID 1159580)
particulars: S. cerevisiae deletion strains, growth OD, locus YNL209W, strain ssb2, hits give low values
Among all 5,500 compounds or so, about 2,000 (36%) were called active. Roughly 18% stayed inconclusive and do not appear here. This is one part of the list.

[
  {
    "compound": "CC(=O)O[C@H]1C[C@@]2(C)[C@H](c3ccoc3)OC(=O)[C@H]3O[C@]32[C@@]2(C)C1[C@]1(C)C(C[C@H]2OC(C)=O)C(C)(C)[C@H](OC(C)=O)C[C@@H]1OC(C)=O (some centres undefined)",
    "normalized growth": 0.992
  },
  {
    "compound": "Cc1cc2cc3c(C)cc(=O)oc3c(C)c2o1",
    "normalized growth": 0.981
  },
  {
    "compound": "O=C(O)c1nc2cc(Cl)c(Cl)cc2[nH]c1=O",
    "normalized growth": 1.01
  },
  {
    "compound": "CC(=O)O[C@@H]1CC2C(C)(C)CCC(=O)[C@]2(C)C2CC[C@@]3(C)[C@H](c4ccoc4)OC(=O)C4OC43[C@@]21C (some centres undefined)",
    "normalized growth": 1.01
  }
]

====

assay notes: chemical genetic growth profiling, strain panel (AID 1159580);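 further: tested at 20 µM; growth read once vehicle control cultures reached saturation at 30 °C; 1 = growth at the plate median or of vehicle wells; lower values mean less growth of the strain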
particulars: S. cerevisiae deletion strains, growth OD, locus YOR136W, strain idh2, hits give low values
About 2,000 (36%) of roughly 5,500 compounds were called active. Not shown: some 18% with an inconclusive outcome. This is one part of the list.
parameter measured: normalized growth

[
  {
    "compound": "CC1NC(=O)NC1=O (stereo not given)",
    "parameter measured": "normalized growth",
    "readout value": 1.02
  },
  {
    "compound": "O=c1c(-c2ccccc2)coc2cc(O)cc(O)c12",
    "parameter measured": "normalized growth",
    "readout value": 0.905
  },
  {
    "compound": "CNCCC=C1c2ccccc2CCc2ccccc21",
    "parameter measured": "normalized growth",
    "readout value": 1.01
  },
  {
    "compound": "COc1c(O)cc2c(-c3ccccc3)cc(=O)oc2c1OC",
    "parameter measured": "normalized growth",
    "readout value": 0.977
  },
  {
    "compound": "CC(=O)Oc1cc(OC(C)=O)c2c(=O)c(-c3ccccc3)coc2c1",
    "parameter measured": "normalized growth",
    "readout value": 0.997
  },
  {
    "compound": "COc1ccc(-c2coc3cc(OC)cc(O)c3c2=O)cc1",
    "parameter measured": "normalized growth",
    "readout value": 0.971
  },
  {
    "compound": "O=C1CC[C@]23C=CC(=O)NCCCCNCCCNC(=O)/C=C/c4ccc(c2c4)O[C@@H]3C1",
    "parameter measured": "normalized growth",
    "readout value": 0.979
  },
  {
    "compound": "COc1ccc(C(=O)/C=C/c2ccccc2)cc1",
    "parameter measured": "normalized growth",
    "readout value": 0.939
  },
  {
    "compound": "C=CCCCCCCCCCCCC(O)CC(O)CO (stereo not given)",
    "parameter measured": "normalized growth",
    "readout value": 0.935
  },
  {
    "compound": "O=C1CCc2cc(OCCCCc3nnnn3C3CCCCC3)ccc2N1",
    "parameter measured": "normalized growth",
    "readout value": 0.983
  }
]

====

assay notes: chemical genetic growth profiling, strain panel (AID 1159580);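 further: tested at 20 µM; growth read once vehicle control cultures reached saturation at 30 °C; 1 = growth at the plate median or of vehicle wells; lower values mean less growth of the strain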
particulars: S. cerevisiae deletion strains, growth OD, locus YGL227W, strain vid30, hits give low values
About 2,000 (36%) of roughly 5,500 compounds were called active. Inconclusive results (about 18%) are left out. This is one part of the list.

[
  {
    "compound": "CC(C)=CCc1c2c(c(O)c3c(=O)c(O)c(-c4ccccc4)oc13)C=CC(C)(C)O2",
    "normalized growth": "0.973 (inactive)"
  },
  {
    "compound": "CC(C)(O)[C@@H]1CC[C@](C)([C@H]2[C@@H](O)C[C@@]3(C)C4C[C@H](O[C@@H]5O[C@H](CO)[C@@H](O)[C@H](O)[C@H]5O)C5C(C)(C)[C@@H](O[C@@H]6OC[C@@H](O)[C@H](O)[C@H]6O)CC[C@@]56C[C@@]46CC[C@]23C)O1 (stereo not given in full)",
    "normalized growth": "0.999 (inactive)"
  },
  {
    "compound": "NS(=O)(=O)c1cc2c(cc1C(F)(F)F)NCNS2(=O)=O",
    "normalized growth": "1 (inactive)"
  },
  {
    "compound": "CN(N=O)C(=O)N[C@@H]1[C@@H](O)[C@H](O)[C@@H](CO)O[C@@H]1O",
    "normalized growth": "1.01 (inactive)"
  },
  {
    "compound": "C=CCc1ccccc1OCC(O)CNC(C)C (stereo not given)",
    "normalized growth": "0.987 (inactive)"
  }
]

====

assay notes: chemical genetic growth profiling, strain panel (AID 1159580);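 further: tested at 20 µM; growth read once vehicle control cultures reached saturation at 30 °C; 1 = growth at the plate median or of vehicle wells; lower values mean less growth of the strain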
particulars: S. cerevisiae deletion strains, growth OD, locus YPR119W, strain clb2
The whole screen tested about 5,500 compounds, of which about 2,000 (36%) were called active. About 18% were inconclusive and are not listed. Rule as the data show it: active = normalized growth mostly below about 0.91 (no sharp cut-off); inconclusive = no clear call, values can overlap the other calls; inactive = mostly above about 0.92. This is one part of the list.
Outcome codes: active, inactive

[
  {
    "compound": "O=c1c(-c2ccc(O)cc2)coc2cc(O)cc(O)c12",
    "label value": "inactive"
  },
  {
    "compound": "CC(N)Cc1ccc(O)cc1 (configuration not stated)",
    "label value": "inactive"
  },
  {
    "compound": "NCCc1ccc(O)cc1",
    "label value": "inactive"
  },
  {
    "compound": "CCCCC1C(=O)N(c2ccccc2)N(c2ccccc2)C1=O",
    "label value": "inactive"
  },
  {
    "compound": "CC(=O)[C@H]1CCC2C3CC=C4C[C@@H](O)CC[C@]4(C)C3CC[C@@]21C (some centres not stated)",
    "label value": "inactive"
  },
  {
    "compound": "CCCCCCCCCc1ccc(O)cc1",
    "label value": "active"
  },
  {
    "compound": "NCCc1ccc(O)c(O)c1",
    "label value": "inactive"
  },
  {
    "compound": "CCn1cc(C(=O)O)c(=O)c2cc(F)c(N3CCNCC3)cc21",
    "label value": "inactive"
  },
  {
    "compound": "CCC(CCC(C)[C@H]1CCC2C3CC=C4C[C@@H](O)CC[C@]4(C)C3CC[C@@]21C)C(C)C (some centres not stated)",
    "label value": "inactive"
  },
  {
    "compound": "C[N+]1(CCCCC[N+]2(C)CCCC2)CCCC1",
    "label value": "inactive"
  },
  {
    "compound": "CCCCCCc1ccc(O)cc1O",
    "label value": "inactive"
  },
  {
    "compound": "CC1(C)O[C@@H]2CC3C4C[C@H](F)C5=CC(=O)C=CC5(C)C4C(O)CC3(C)[C@]2(C(=O)CO)O1 (some centres not stated)",
    "label value": "inactive"
  }
]

FYI, the data here is from PubChem BioAssay AID1159580.
